experimental-target: T1, Dimeric fibrinogen-like domain of mouse (Mus musculus) Ang-2 conjugated to human IgG1 (mouse (Mus musculus))
T1 construct: also called Dimeric Mouse Ang-2FD; Mouse Ang-2FD-hFc
T1 sequence (chain, as listed by the source limits assumed): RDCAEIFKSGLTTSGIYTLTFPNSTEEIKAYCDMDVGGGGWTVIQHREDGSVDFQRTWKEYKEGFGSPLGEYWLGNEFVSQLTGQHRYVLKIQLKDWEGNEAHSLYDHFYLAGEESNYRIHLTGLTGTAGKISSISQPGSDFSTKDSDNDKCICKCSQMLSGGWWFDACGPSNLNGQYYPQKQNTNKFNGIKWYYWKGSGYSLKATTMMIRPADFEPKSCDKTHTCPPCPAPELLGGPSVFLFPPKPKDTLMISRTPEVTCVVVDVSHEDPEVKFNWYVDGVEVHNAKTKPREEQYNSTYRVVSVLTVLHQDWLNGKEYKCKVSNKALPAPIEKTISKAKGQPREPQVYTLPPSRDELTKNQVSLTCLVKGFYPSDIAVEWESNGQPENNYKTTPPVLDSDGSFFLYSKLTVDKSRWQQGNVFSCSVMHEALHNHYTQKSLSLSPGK
procedure-text: blocking ELISA, 16.67 nM antibody, coated hTie-2-mFc
# Percent Blocking of Ang-2FD Binding to Tie-2 values compiled below
readout-name: Percent Blocking of Ang-2FD Binding to Tie-2

binder: H2M744N (antibody, V domains shown) VH: QVQLVQSGVEVKKPGASVKVSCKTSGYTFSNNGFSWVRQAPGQGLEWLGWISGYNGNTNYAQKFQGRVTMTTDTSTSTAYMELRTLRSDDTAVYYCARDQDYSNFHWLDPWGQGTLVTVAS VL: DIQMTQSPSSVSASVGDRVIITCRASQGLSSWLAWYQQKPGTAPKLLIHSASSLQTGVPSRFSGSGSGTEFALTINSLQPEDFGTYYCQQANSFPLTFGGGTRVEIK
experimental-result: 98.4%

binder: H2M749N (antibody, V domains shown, Hybridoma-derived chimeric antibody, mouse constant domains; also called H1M749N; H1M749) VH: QVQLVESGGGVVQPGRSLRLSCAASGFTFSSYGMHWVRQAPGKGLEWVAVIWYDEFNKYYADSVKGRFTISRDNSKNTLYLQMNSLRAEDTAVYYCARERESGYSYGFDYWGQGTLVTVSS VL: EIVMTQSPATLSVSPGERATLSCRAGQSVSSNLAWYQQKPGQAPRLLIYGASTRATGIPARFSGSGSGTEFTLTISSLQSEDFAVYYCQQYNNWWTFGQGTKVEIK
experimental-result: 97.3%

binder: H2M743N (antibody, V domains shown) VH: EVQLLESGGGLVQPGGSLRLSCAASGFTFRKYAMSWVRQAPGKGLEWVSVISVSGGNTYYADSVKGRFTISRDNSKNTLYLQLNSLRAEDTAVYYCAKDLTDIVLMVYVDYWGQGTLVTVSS VL: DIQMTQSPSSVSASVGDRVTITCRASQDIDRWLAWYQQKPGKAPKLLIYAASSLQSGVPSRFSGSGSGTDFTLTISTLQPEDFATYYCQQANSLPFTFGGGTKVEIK
experimental-result: 98.4%

binder: H1M724N (antibody, V domains shown) VH: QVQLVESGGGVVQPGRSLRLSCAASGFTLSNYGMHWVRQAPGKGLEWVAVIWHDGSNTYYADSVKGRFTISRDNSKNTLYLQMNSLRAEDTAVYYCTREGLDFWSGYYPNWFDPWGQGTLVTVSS VL: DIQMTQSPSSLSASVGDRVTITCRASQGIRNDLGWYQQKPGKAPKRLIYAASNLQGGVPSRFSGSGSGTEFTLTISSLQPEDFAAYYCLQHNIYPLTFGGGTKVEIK
experimental-result: 96.6%

binder: H1M728N (antibody, V domains shown) VH: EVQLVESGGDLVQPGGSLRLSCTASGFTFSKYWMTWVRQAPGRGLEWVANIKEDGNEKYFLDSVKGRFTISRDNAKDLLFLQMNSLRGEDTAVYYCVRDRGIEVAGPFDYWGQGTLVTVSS VL: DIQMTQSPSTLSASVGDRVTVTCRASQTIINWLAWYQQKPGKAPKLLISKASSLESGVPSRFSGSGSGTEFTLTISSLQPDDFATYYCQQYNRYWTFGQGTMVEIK
experimental-result: 83.9%

binder: H1M732N (antibody, V domains shown) VH: EVQLVESGGGLVRPGGSLRLSCAASGFTFTNAWMSWVRQAPGKGLEWIGQIKSKTDGGTIDYAAPVKGRFTVSRDDSENTLFLQMNSLKTEDTAVYYCAGNWNYVDFDYWGQGTLVTVSS VL: DIQMTQSPSSLSASVGDRVTITCRASQDIRNDLGWYQQKPGKAPKRLIYAASSLQGGVPSRFSGSGSGTEFTLTISSLQPEDFATYYCLQHNSYPFTFGPGTKVDIK
experimental-result: 90.9%

Value source: patent US20150147342A1
